Target: Human M4 (Homo sapiens, UniProt P08173)
Sequence (P08173 1-479): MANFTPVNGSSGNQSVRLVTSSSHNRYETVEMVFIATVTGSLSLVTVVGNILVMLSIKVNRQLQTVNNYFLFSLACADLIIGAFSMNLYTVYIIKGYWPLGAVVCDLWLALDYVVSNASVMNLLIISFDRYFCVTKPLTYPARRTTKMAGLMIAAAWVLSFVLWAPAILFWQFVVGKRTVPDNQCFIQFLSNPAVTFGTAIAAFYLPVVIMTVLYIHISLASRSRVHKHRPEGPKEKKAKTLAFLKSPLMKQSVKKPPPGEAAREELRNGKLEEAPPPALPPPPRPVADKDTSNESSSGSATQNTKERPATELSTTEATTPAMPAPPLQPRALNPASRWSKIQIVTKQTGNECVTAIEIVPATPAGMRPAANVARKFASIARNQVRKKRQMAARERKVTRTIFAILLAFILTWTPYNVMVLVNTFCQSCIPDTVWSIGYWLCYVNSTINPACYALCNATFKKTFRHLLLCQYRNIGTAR
Assay: mAChR M4 cell-based functional assay (calcium flux, potentiation of EC20 acetylcholine response)
Structures can show the parent of a compound that is named as a salt.
Category | rule: reported EC50 within range, see group 1: < 60 nM; group 2: ≥ 60 nM and < 300 nM; group 3: ≥ 300 nM

Worked cases, answers included:
Cc1nnc2sc3c(NCc4ccc(OC(F)(F)F)cc4)nccc3c2c1C [Compound 11, hydrochloride]; group 3
Cc1c(C(F)F)nnc2sc3c(N4CCCC4)nccc3c12; group 3

[Q] Classify this compound: COc1nnc2sc3c(NC4CCC4)nccc3c2c1C
[A] group 1

[Q] Which EC50 band matches Cc1cc(C)c2c(n1)sc1c(NC3CCC3)nccc12 [Compound 3, dihydrochloride] ?
[A] group 2

----------
target: UniProt:P08173; experiment: mAChR M4 cell-based functional assay (calcium flux, potentiation of EC20 acetylcholine response); parameters: dose or concentration left out as unconfirmed
Counter-ions that a name gives are not always drawn.
Quick reference: Emax of the listed items.

Cc1nnc2sc3c(NCc4ccc(C(C)(C)O)cc4F)nccc3c2c1C; 80%
COc1ccc(CNc2nccc3c2sc2nnc(C)c(C)c23)cc1 [Compound 9, hydrochloride]; 76.8%
Cc1nnc2sc3c(N4CCCC4)ncc(Cl)c3c2c1C [Compound 23, Hydrochloride]; 36.5%
Cc1nc2sc3c(N4CCCC4)nccc3c2c(C)c1Cl; 79.5%
Cc1nnc2sc3c(NC4CN(c5ccc(F)c(F)c5)C4)nccc3c2c1C [Compound 19, hydrochloride]; 74.2%
Cc1nnc2sc3c(NC4CN(c5ccc(C#N)cn5)C4)nccc3c2c1C; 117%

[Q] Tell me the measured Emax of Cc1nnc2sc3c(NC4CN(c5ncc(C(F)(F)F)cn5)C4)nccc3c2c1C [Compound 10, hydrochloride] , please.
[A] 74.4%

[Q] Recorded Emax of Cc1nnc2sc3c(NCc4ccc(OCC5CC5)c(F)c4)nccc3c2c1C [Compound 18, hydrochloride] , please.
[A] 88.6%

----------
biological target: Human M4 (Homo sapiens); assay: mAChR M4 cell-based functional assay (calcium flux, potentiation of EC20 acetylcholine response)
pEC50: −log10 of the molar value. Counter-ions that a name gives are not always drawn.
Criterion: pEC50 meeting or surpassing 6. Met: t. Not met: f.

Cc1nc2sc3c(NCc4ccc(C(C)(C)O)c(F)c4)nccc3c2c(C)c1Cl [Compound 31]; f

[Q] Does the molecule COc1ccc(CNc2nccc3c2sc2nc(C)c(Cl)c(C)c23)cc1 [Compound 28] have recorded pEC50 that is 6 or more?
[A] f

[Q] Form field: pEC50 at least 6? Entry: COc1ccc(CNc2nccc3c2sc2nnc(Cl)c(C)c23)cc1 [Compound 32]
[A] t

[Q] Does the reported pEC50 for Cc1cc(C)c2c(n1)sc1c(NCc3ccc(C(C)(C)O)cc3)nccc12 [Compound 26] fall at or above the 6 mark?
[A] t

[Q] Please check the record Cc1nnc2sc3c(NCc4ccc(C(=O)N5CCOCC5)cc4)nccc3c2c1C [Compound 13] and state if its pEC50 is at or above 6.
[A] t

[Q] Check if pEC50 >= 6 (inclusive). Item: Cc1nnc2sc3c(N4CCCC4)nccc3c2c1C [Compound 6, hydrochloride]
[A] t

[Q] Hi, just wondering whether COc1ccc(CNc2nccc3c2sc2nc(C)cc(C)c23)cc1F [Compound 25] shows pEC50 of 6 or higher.
[A] f

[Q] Given Cc1nnc2sc3c(N4CCCC4)ncc(Cl)c3c2c1C [Compound 23, Hydrochloride] , state whether its pEC50 is at least 6.
[A] t

----------
target: Human M4 (Homo sapiens, UniProt P08173); test: mAChR M4 cell-based functional assay (calcium flux, potentiation of EC20 acetylcholine response); parameters: dose or concentration left out as unconfirmed
Where a name gives a salt, the structure may show the parent alone.
# reported Emax; entries follow
Entry format: amount then unit.

Solved entries (count: 3):
Cc1nc2sc3c(NCc4ccc(C(C)(C)O)cc4)nccc3c2c(C)c1Cl; 72.9%
Cc1nnc2sc3c(NCc4ccc(F)c(F)c4)nccc3c2c1C [Compound 16, hydrochloride]; 81.5%
Cc1c(Cl)nnc2sc3c(N4CCCC4)nccc3c12; 101%

[Q] Consider the molecule shown here: Cc1c(Cl)nnc2sc3c(NC4CCC4)nccc3c12 What is its recorded Emax?
[A] 91.4%

[Q] Emax lookup needed for COc1ccc(CNc2nccc3c2sc2nc(C)c(Cl)c(C)c23)cc1 , thanks.
[A] 60.8%

----------
molecular target: Human M4 (Homo sapiens, UniProt P08173); assay: mAChR M4 cell-based functional assay (calcium flux, potentiation of EC20 acetylcholine response); parameters: dose or concentration left out as unconfirmed
Counter-ions that a name gives are not always drawn.
METRIC: Emax
Units required after the number.

Cc1cc(C)c2c(n1)sc1c(NC3CCCC3)nccc12 [Compound 1]; 67%
Cc1c(C(F)F)nnc2sc3c(N4CC(c5ccncc5)C4)nccc3c12 [Compound 42]; 56.1%
Cc1c(C(F)F)nnc2sc3c(N4CCCC4)nccc3c12 [Compound 40]; 55.9%
Cc1nnc2sc3c(NCc4ccc(C(C)(C)O)c(F)c4)nccc3c2c1C [Compound 20]; 85.6%

[Q] Request the reported Emax associated with Cc1cc(C)c2c(n1)sc1c(NCc3ccc(C(C)(C)O)cc3F)nccc12 [Compound 27]
[A] 102%

[Q] I'd like to know its Emax. The molecule in question is Cc1nnc2sc3c(NC4CN(c5ncc(F)cn5)C4)nccc3c2c1C [Compound 12, hydrochloride]
[A] 77.4%

----------
Here the recorded pEC50 is given for each entry.
Target: UniProt P08173
Sequence (P08173 1-479): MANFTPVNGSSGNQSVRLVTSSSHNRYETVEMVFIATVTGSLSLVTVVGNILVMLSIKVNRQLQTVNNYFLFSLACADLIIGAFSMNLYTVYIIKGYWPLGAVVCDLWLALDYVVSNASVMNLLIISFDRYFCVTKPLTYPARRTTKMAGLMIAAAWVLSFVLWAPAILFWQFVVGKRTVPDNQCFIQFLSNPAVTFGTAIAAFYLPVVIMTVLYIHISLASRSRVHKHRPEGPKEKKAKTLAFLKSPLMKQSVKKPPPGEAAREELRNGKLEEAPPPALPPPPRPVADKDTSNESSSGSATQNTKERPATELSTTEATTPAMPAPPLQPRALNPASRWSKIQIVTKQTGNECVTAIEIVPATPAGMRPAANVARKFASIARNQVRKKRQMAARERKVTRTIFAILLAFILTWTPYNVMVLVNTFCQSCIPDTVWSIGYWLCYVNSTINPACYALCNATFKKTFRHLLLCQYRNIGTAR
Test: mAChR M4 cell-based functional assay (calcium flux, potentiation of EC20 acetylcholine response)
Structures can show the parent of a compound that is named as a salt.
Reminder that pEC50 means the negative base-10 logarithm of the concentration expressed in mol/L.

Completed entries (count: 4):
Cc1nnc2sc3c(NC4CCCC4)nccc3c2c1C [Compound 5, Hydrochloride]; 7.91
Cc1c(C(F)F)nnc2sc3c(N4CC5(COC5)C4)nccc3c12 [Compound 41]; 5.73
Cc1nnc2sc3c(NC4CN(c5ncc(F)cn5)C4)nccc3c2c1C [Compound 12, hydrochloride]; 7.74
Cc1nc2sc3c(N4CCCC4)nccc3c2c(C)c1Cl [Compound 30]; 6.15

[Q] Would you mind telling me what pEC50 value was observed for Cc1c(Cl)nnc2sc3c(N4CCCC4)nccc3c12 [Compound 35] ?
[A] 7.60

[Q] # query: pEC50 of entry COc1ccc(CNc2nccc3c2sc2nnc(Cl)c(C)c23)cc1F [Compound 36]
[A] 6.73

[Q] What does the data say about its pEC50? Entry: COc1ccc(CNc2nccc3c2sc2nnc(OC)c(C)c23)cc1 [Compound 37]
[A] 6.25

[Q] Sample Cc1nnc2sc3c(NCc4ccc(C(C)(C)O)c(F)c4)nccc3c2c1C [Compound 20] — what was its pEC50?
[A] 7.40

[Q] Form field: reported pEC50 of Cc1nnc2sc3c(NCc4ccc(C(F)(F)F)c(F)c4)nccc3c2c1C [Compound 17, hydrochloride]
[A] 5.76

[Q] Item Cc1nnc2sc3c(NCc4ccc(F)c(F)c4)nccc3c2c1C [Compound 16, hydrochloride] has what recorded pEC50?
[A] 6.71

[Q] If you can, please state the reported pEC50 value of Cc1cc(C)c2c(n1)sc1c(N3CCCC3)nccc12 [Compound 2] .
[A] 6.63
